A compilation of IC50 values for Tyrosine-protein kinase JAK3 (Homo sapiens, UniProt P52333) from the published literature.

See these solved cases before continuing.
[
  {
    "compound": "Cc1ccc(NC(=O)c2cc(C(F)(F)F)ccn2)cc1-c1ccc2c(c1)[nH]c1ncncc12",
    "IC50": "≤ 500 nM"
  },
  {
    "compound": "CN1CCC(c2ccc(-c3cc4nccn4c(-c4cnn(C(CC#N)C5CCCC5)c4)n3)cc2)CC1 (single isomer, unassigned)",
    "IC50": "100 to 1000 nM"
  }
]

Fill in: IC50 on Tyrosine-protein kinase JAK3 (Homo sapiens, UniProt P52333), entry "CS(=O)(=O)c1ccc(-c2cnc3[nH]ccc3c2N[C@@H]2CCCN(C(=O)CC#N)C2)nc1"
≤ 10 nM

----------
Below are IC50 measurements against UniProt P52333 drawn from the literature.

A selection of reference data follows.
[
  {
    "molecule": "CCC(=O)c1cnc(Nc2ccc(O[C@@H]3CCN(C)C3)cn2)cc1Nc1cc(F)cc(-c2ncn(C)n2)c1OC",
    "IC50": "≥ 0.5 µM"
  },
  {
    "molecule": "O=C(O)c1nc(-n2cnc3ccc(F)cc32)nc2c1[nH]c(=O)n2C1CCOCC1",
    "IC50": "0.1 to 1 µM"
  },
  {
    "molecule": "CCC(=O)c1cnc(Nc2ccc(C(C)(C)N(C)C)nn2)cc1Nc1cccc(-c2ncn(C)n2)c1OC",
    "IC50": "≥ 0.5 µM"
  },
  {
    "molecule": "N#CCC(=O)Nc1cccc(-c2cnc3ccccc3n2)c1",
    "IC50": "0.136 µM"
  },
  {
    "molecule": "CNC(=O)c1n[nH]c2nc(-c3cc(F)c(O)cc3CC(F)(F)F)nc(NCc3ccccc3N(C)S(N)(=O)=O)c12",
    "IC50": "0.107 µM"
  },
  {
    "molecule": "Fc1ccc2ncn(-c3ncc4nc(-c5ncc[nH]5)n(C5CCOCC5)c4n3)c2c1",
    "IC50": "0.1 to 1 µM"
  }
]

Report IC50 on UniProt P52333 for this entry: NC(=O)c1nc(-n2cnc3ccc(F)cc32)nc2c1[nH]c(=O)n2C1CCOc2ccccc21 (stereo not shown)
< 0.1 µM

Answer briefly: IC50 recorded on UniProt P52333 for "Cc1ccc(C(=O)Nc2cccc(OC(F)(F)F)c2)cc1-c1ccc2c(c1)[nH]c1ncncc12"
≤ 0.5 µM

Fill in: IC50 on UniProt P52333, entry N#CCC(C1CC1)n1cc(-c2nc(-c3cnn(C4CCC4)c3)cc3nccn23)cn1 (stereo not shown)
0.1 to 1 µM

Lab note: UniProt P52333 assay, enter IC50 for "Cc1cnc2nc1Nc1ccccc1CCCNC(=O)c1ccc(cc1F)-c1cnc(F)c(c1)N2" here
0.101 to 1 µM

State measured IC50 of the molecule "O=C(N[C@H]1C[C@@](O)(C(F)(F)F)C1)c1noc2c1CN(c1ncnc3[nH]ccc13)CC2" with UniProt P52333.
< 0.1 µM

For UniProt P52333, give IC50 of the listed molecule: "Cc1cc(Nc2nccc(-c3ccn(C4(CC#N)CN(C(=O)[C@@H]5CC5(F)F)C4)c3)n2)cnc1C(N)=O"
0.674 µM

Specify the recorded IC50 for "C[C@@H]1CCCC[C@@H]1Nc1c(C(N)=O)cnc2[nH]ccc12" , system: UniProt P52333.
0.003 µM
